Entry source: patent US20250361288A1

Biological target: T1, human LTβR extracellular domain fused with an Fc fragment at the C-terminus (human, UniProt P36941 31-227)
T1 construct: extracellular domain; Bought; also called hLTβR; not shown: Fc fragment at the C-terminus
T1 sequence (P36941 31-227): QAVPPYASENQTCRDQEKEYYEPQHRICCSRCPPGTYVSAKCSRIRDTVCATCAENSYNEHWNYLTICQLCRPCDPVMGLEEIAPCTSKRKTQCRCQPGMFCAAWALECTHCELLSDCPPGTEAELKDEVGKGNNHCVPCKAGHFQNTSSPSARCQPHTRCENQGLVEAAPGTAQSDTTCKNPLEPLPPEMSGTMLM
Test: ELISA on coated target-Fc
Listed here are binders together with their documented EC50.
Dear colleague, please return just the value in µg/mL, with no unit written.

>>> reported("LIGHT-7 (ligand, Printed mutations: P155R, L220Q, R232H; Soluble protein carries an N-terminal His tag) DGPAGSWEQLIQERRSHEVNPAAHLTGANSSLTGSGGPLLWETQLGLAFLRGLSYHDGALVVTKAGYYYIYSKVQLGGVGCRLGLASTITHGLYKRTPRYPEELELLVSQQSPCGRATSSSRVWWDSSFLGGVVHLEAGEKVVVRVQDERLVRLRDGTHSYFGAFMV")
0.109

Then this binder:
Record summary for LIGHT-42 (ligand, Printed mutations: G150R, L220S; Soluble protein carries an N-terminal His tag) DGPAGSWEQLIQERRSHEVNPAAHLTGANSSLTGSGGPLLWETQLGLAFLRGLSYHDGALVVTKAGYYYIYSKVQLRGVGCPLGLASTITHGLYKRTPRYPEELELLVSQQSPCGRATSSSRVWWDSSFLGGVVHLEAGEKVVVRVSDERLVRLRDGTRSYFGAFMV : reported EC50 = 0.0639
